biological target: Histamine H4 receptor (Homo sapiens, UniProt Q9H3N8); test: Agonist activity at human histamine H4 receptor expressed in HEK293 cells coexpressing Gqi5 protein assessed as calcium flux by FLIPR assay
quantity_kind: EC50 (nM)

* CN1CCN(c2ccnc(N)n2)CC1 | 43.7
* CN1CCN(c2cc(-n3cnc4ccccc43)nc(N)n2)CC1 | 178

I = CN1CCN(c2cc(-n3ccccc3=O)nc(N)n2)CC1
II = CN1CCN(c2cc(-n3ccnc3)nc(N)n2)CC1
Returns the identifier with the smallest measured EC50 among I and II . Lab log: write the label of the selected item as the result.
II
(II: 2510 nM, I: 3890 nM)

====

target: Histamine H4 receptor (Rattus norvegicus, UniProt Q91ZY1); assay: Agonist activity at rat histamine H4 receptor expressed in HEK293 cells coexpressing Gqi5 protein assessed as calcium flux by FLIPR assay; assay type: functional, cell-based
Sequence (Q91ZY1 whole entry): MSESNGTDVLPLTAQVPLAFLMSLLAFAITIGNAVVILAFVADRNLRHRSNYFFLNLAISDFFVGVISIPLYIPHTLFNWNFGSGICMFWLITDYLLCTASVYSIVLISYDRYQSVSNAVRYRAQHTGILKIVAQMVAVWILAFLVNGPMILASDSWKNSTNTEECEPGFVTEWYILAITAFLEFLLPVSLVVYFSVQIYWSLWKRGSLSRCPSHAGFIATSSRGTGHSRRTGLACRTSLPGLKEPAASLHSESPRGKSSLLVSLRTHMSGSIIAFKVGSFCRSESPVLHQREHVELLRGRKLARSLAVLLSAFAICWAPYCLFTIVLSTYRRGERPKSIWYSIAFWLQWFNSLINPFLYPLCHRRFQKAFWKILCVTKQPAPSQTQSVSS
quantity_kind: EC50 (nM)

# example entries with known answers
• CN(C)CCN(C)c1cc(C(C)(C)C)nc(N)n1 = 1120
• CN1CCN(c2cc(-c3cn(C)cn3)nc(N)n2)CC1 = 102

A = COc1c(-c2ccc(C#N)cc2)nc(N)nc1N1CCN(C)CC1
B = CC(C)(C)c1cc(N2CCNCC2)nc(-n2cccc2)n1
Hi there, can you help? I need to know whether A or B has lower measured EC50. Selection: enter the item's label.
B

A = COc1cccc(OC)c1-c1cc(N2CCN(C)CC2)nc(N)n1
B = CN1CCN(c2cc(N)nc(-c3ccc(C#N)cc3)c2)CC1
C = CN1CCN(c2cc(Sc3ccccc3)nc(N)n2)CC1
D = CN1CCN(c2cc(-c3ccc(Cl)cc3)nc(N)n2)CC1
E = CN1CCN(c2cc(C(C)(C)C)nc(N(C)C)n2)CC1
Order each entry by recorded EC50, climbing from the minimum. Reply format: the labels, ordered as requested.
D, A, B, C, E

====

molecular target: Histamine H4 receptor (Homo sapiens, UniProt Q9H3N8); conditions: HEK293
quantity_kind: pKb

P = CN1CCN(c2cc(-c3cccc(Cl)c3)nc(N)n2)CC1
Q = CN1CCN(c2cc(N)cc(-c3ccc(C#N)cc3)n2)CC1
Endpoint returns the identifier whose pKb is numerically larger, either P or Q . Choose, then provide that item's label.
P
(P: 8.24, Q: 5.05)

====

target: Histamine H4 receptor (Rattus norvegicus); test: Agonist activity at rat histamine H4 receptor expressed in HEK293 cells coexpressing Gqi5 protein assessed as calcium flux by FLIPR assay relative to histamine; type: functional, cell-based
quantity_kind: Efficacy (%)

* CN1CCN(c2nc(N)nc(C(C)(C)C)n2)CC1 | 70
* CN1CCN(c2cc(N)nc(N)n2)CC1 | 71
* COc1cccc(-c2cc(N3CCN(C)CC3)nc(N)n2)c1 | 69
* CN1CCN(c2cc(N3CCN(C)CC3)nc(N)n2)CC1 | 68
* CN1CCN(c2cc(-c3cccc(C#N)c3)nc(N)n2)CC1 | 48

a = CN1CCN(c2cc(N)nc(-c3ccc(C#N)cc3)c2)CC1
b = CN(C)CCCN(C)c1cc(C(C)(C)C)nc(N)n1
Returns: the argument ( a or b ) having the larger Efficacy. Selection: enter the item's label.
a
(a: 84%, b: 40%)

1 = COc1ncccc1-c1cc(N2CCN(C)CC2)nc(N)n1
2 = CN1CCN(c2cc(-n3ccccc3=O)nc(N)n2)CC1
Please compare: 1 and 2 . Report which one has the smaller Efficacy value. State the label of the item chosen.
2
(2: 33%, 1: 72%)

====

molecular target: Histamine H4 receptor (Rattus norvegicus); assay: Agonist activity at rat histamine H4 receptor expressed in HEK293 cells coexpressing Gqi5 protein assessed as calcium flux by FLIPR assay relative to histamine; assay type: functional, cell-based
quantity_kind: Efficacy (%)

- CN1CCN(c2cc(-n3ccnc3)nc(N)n2)CC1: 56
- CN1CCN(c2cc(I)nc(N)n2)CC1: 67
- CN1CCN(c2cc(O)nc(N)n2)CC1: 92
- CN1CCN(c2cc(-c3c[nH]cn3)nc(N)n2)CC1: 77
- N#Cc1ccc(-c2cc(N3CCNCC3)nc(N)n2)cc1: 67

A = CN1CCN(c2cc(-c3ccccc3C#N)nc(N)n2)CC1
B = CN1CCN(c2cc(-c3ccc4ccccc4c3)nc(N)n2)CC1
For A and B , which recorded Efficacy is lower? When you have decided, please share the label of that item.
B
(B: 41%, A: 73%)

====

biological target: UniProt:Q9H3N8; conditions: HEK293
quantity_kind: pKb

• CN1CCN(c2cc(N)nc(-c3ccc(C#N)cc3)c2)CC1 = 6.86
• CCN1CCN(c2cc(C(C)(C)C)nc(N)n2)CC1 = 7.86
• CN1CCN(c2cc(-c3cn(C)cn3)nc(N)n2)CC1 = 8.05
• CN1CCN(c2cc(-c3ccccc3-c3ccccc3)nc(N)n2)CC1 = 6.79
• Cc1cnc(N)nc1N1CCN(C)CC1 = 7.07
• CN1CCN(c2cc(-c3cccc4ccccc34)nc(N)n2)CC1 = 7.81

====

target: Histamine H4 receptor (Rattus norvegicus, UniProt Q91ZY1); assay: Agonist activity at rat histamine H4 receptor expressed in HEK293 cells coexpressing Gqi5 protein assessed as calcium flux by FLIPR assay; assay type: functional, cell-based
quantity_kind: EC50 (nM)

* CN1CCN(c2cc(-c3cnn(C)c3)nc(N)n2)CC1 | 219
* CN1CCN(c2cc(-c3cccc(Cl)c3)nc(N)n2)CC1 | 31.6
* Cc1cccc(-c2cc(N3CCN(C)CC3)nc(N)n2)c1 | 42.7
* CN1CCN(c2nc(N)ncc2-c2ccccc2)CC1 | 8320

a = CN1CCN(c2cc(-c3c[nH]cn3)nc(N)n2)CC1
b = COc1ccc(-c2cc(N3CCN(C)CC3)nc(N)n2)cc1
c = Cc1ccccc1-c1cc(N2CCN(C)CC2)nc(N)n1
d = CN(C)CCNc1cc(C(C)(C)C)nc(N)n1
Rank order required: EC50, descending. Answer by naming the labels in the order asked.
d, a, c, b

====

biological target: Histamine H4 receptor (Homo sapiens, UniProt Q9H3N8); details: HEK293
quantity_kind: pKb

- Cc1ccc(-c2cc(N3CCN(C)CC3)nc(N)n2)cc1: 8.06
- COc1ncc(-c2cc(N3CCN(C)CC3)nc(N)n2)cn1: 5.91
- CN1CCN(c2cc(-c3ccc4ccccc4c3)nc(N)n2)CC1: 7.02
- CN(C)CCNc1cc(C(C)(C)C)nc(N)n1: 6.91
- N#Cc1ccc(-c2cc(N3CCN(CC4CC4)CC3)nc(N)n2)cc1: 5.53
- CN1CCN(c2cc(N(C)Cc3ccccc3)nc(N)n2)CC1: 6.77
- COc1cc(N2CCN(C)CC2)nc(N)n1: 5.53
- CN1CCN(c2cc(-c3cccc(C#N)c3)nc(N)n2)CC1: 8.06
- CN1CCN(c2cc(Nc3ccccc3)nc(N)n2)CC1: 8.18
- CN1CCN(c2nc(N)cc(C(C)(C)C)n2)CC1: 5.82
- N#Cc1ccc(-c2cc(N3CCNCC3)nc(N)n2)cc1: 8.08
- CN1CCN(c2cc(N3CCNC3=O)nc(N)n2)CC1: 5.38
- CN1CCN(c2cc(O)nc(N)n2)CC1: 4.44
- CNc1nc(N2CCN(C)CC2)cc(C(C)(C)C)n1: 6.08
- CN1CCN(c2cc(-c3ccc(-c4ccccc4)cc3)nc(N)n2)CC1: 6.29
- CN1CCN(c2cc(C(C)(C)C)ncn2)CC1: 7.07

====

target: Histamine H4 receptor (Homo sapiens); settings: HEK293
quantity_kind: pKb

- CN1CCN(c2cc(-c3ccccc3)nc(N)n2)CC1: 8.39
- CN1CCN(c2cc(-c3cccc(-c4ccccc4)c3)nc(N)n2)CC1: 6.85
- CN1CCN(c2cc(I)nc(N)n2)CC1: 6.33
- Cc1ccccc1-c1cc(N2CCN(C)CC2)nc(N)n1: 8.07
- CN1CCN(c2cc(N3CCN(C)CC3)nc(N)n2)CC1: 6.84
- CN1CCN(c2cc(-n3cnc(-c4ccccc4)c3)nc(N)n2)CC1: 5.68
- CN1CCN(c2cc(N)nc(C(C)(C)C)n2)CC1: 6.28
- CN1CCN(c2cc(C(C)(C)C)nc(N)n2)CC1: 8.35
- Cc1cc(N2CCN(C)CC2)nc(N)n1: 7.2
- CN(C)CCN1CCN(c2cc(C(C)(C)C)nc(N)n2)CC1: 6.44

====

target: Histamine H4 receptor (Rattus norvegicus); test: Agonist activity at rat histamine H4 receptor expressed in HEK293 cells coexpressing Gqi5 protein assessed as calcium flux by FLIPR assay; type: functional, cell-based
pEC50: −log10 of the molar value.
quantity_kind: pEC50

Consider the worked cases shown below.
- CN1CCN(c2cc(-c3cccc(I)c3)nc(N)n2)CC1: 6.05
- CN1CCN(c2cc(N)nc(N)n2)CC1: 6.66
- CN1CCN(c2cc(-c3ccc(I)cc3)nc(N)n2)CC1: 6.56
- CN1CCN(c2cc(O)nc(N)n2)CC1: 5.83
- CN1CCN(c2cc(-c3cccnc3)nc(N)n2)CC1: 6.68
- Cc1ccc(-c2cc(N3CCN(C)CC3)nc(N)n2)cc1: 7.25

P = CN1CCN(c2cc(-c3ccccc3C#N)nc(N)n2)CC1
Q = CN1CCN(c2cc(NCc3ccccc3)nc(N)n2)CC1
Among P and Q , which shows a numerically higher pEC50 result? Refer to your chosen item by its label in the answer.
Q
(Q: 6.31, P: 5.92)

Taken from ChEMBL document CHEMBL1140148.
